test system: HEK293 cells; assay: Cytotoxicity, CellTiter-Glo cell viability assay; type: cell-based, human; conditions: HEK293 cells, CellTiter-Glo; Table 3
readout-name: Cytotoxicity LD50

Answered cases to consult:
{"structure-as-smiles": "CCOC(=O)c1ncn2c1C1(CC1)N=C(c1ccccc1F)c1cc(Br)ccc1-2", "value-observed": ">120 µM"}
{"structure-as-smiles": "CCOC(=O)c1ncn2c1C(C)(C)N=C(c1ccccc1F)c1cc(Br)ccc1-2", "value-observed": ">150 µM"}
{"structure-as-smiles": "CCOC(=O)c1ncn2c1C1(CCCCC1)N=C(c1ccccc1F)c1cc(Br)ccc1-2", "value-observed": ">150 µM"}
{"structure-as-smiles": "O=C(O)c1ncn2c1C1(CC1)N=C(c1ccccc1F)c1cc(Br)ccc1-2", "value-observed": ">300 µM"}

Then there is this compound:
In: If you can, please state the reported Cytotoxicity LD50 value of O=C1Nc2ccc(Cl)cc2C(c2ccccc2F)=NC12CC2 .
Out: >150 µM
